These entries and their values trace back to ChEMBL document CHEMBL4145504.

test system: P-gp; assay: Therapeutic index, ratio of IC50 for HEK293 cells to EC50 for inhibition of P-gp in human MCF7/ADR cells assessed as potentiation of doxorubicin-induced cytotoxicity; format: toxicity, cell-based; details: HEK293 cells (IC50) and MCF7/ADR cells (EC50)
For each record, check the reported selectivity ratio: if it is below 400 write Yes, else write No.

Check out these entries, answers already filled in.
Molecule	Label class
C=C1[C@H](OC(=O)C(C)C)[C@@H](OC(C)=O)[C@@H](OC(C)=O)C(C)(C)/C=C/[C@H](C)[C@H](OC(=O)c2ccccc2)[C@@]2(O)C[C@@](C)(OC(C)=O)[C@H](OC(C)=O)[C@@H]2[C@H]1OC(=O)CC	Yes
C=C1[C@H](OC(=O)CC)[C@@H](OC(C)=O)[C@@H](OC(C)=O)C(C)(C)/C=C/[C@H](C)[C@H](OC(=O)c2ccccc2)[C@@]2(O)C[C@@](C)(OC(C)=O)[C@H](OC(C)=O)[C@@H]2[C@H]1OC(=O)C(C)C	No
C=C1[C@H](OC(=O)C(C)C)[C@@H](OC(C)=O)[C@@H](OC(C)=O)C(C)(C)/C=C/[C@H](C)[C@H](O)[C@@]2(O)C[C@@](C)(OC(=O)C(C)C)[C@H](OC(C)=O)[C@@H]2[C@H]1OC(=O)c1ccccc1	No
CC(=O)O[C@H]1[C@@H](OC(C)=O)C(C)(C)/C=C/[C@H](C)[C@@H](OC(C)=O)[C@@]2(O)C[C@@](C)(OC(C)=O)[C@@H]3OC(=O)CC[C@@](O)([C@@H]1OC(=O)C(C)C)[C@H](OC(=O)c1ccccc1)[C@@H]32	Yes
C=C1[C@@H](OC(C)=O)[C@@H]2[C@H](OC(=O)c3ccccc3)[C@](C)(OC(=O)C(C)C)C[C@]2(OC(C)=O)C(=O)[C@H](C)/C=C/C(C)(C)[C@H](OC(C)=O)[C@H](OC(C)=O)[C@H]1OC(=O)C(C)C	Yes
CC(=O)O[C@H]1[C@@H](OC(C)=O)C(C)(C)/C=C/[C@H](C)[C@H](OC(C)=O)[C@@]2(O)C[C@@](C)(OC(C)=O)[C@H](O)[C@@H]2[C@H]2OC(=O)CC[C@@]2(OC(=O)c2ccccc2)[C@@H]1OC(=O)C(C)C	Yes
C=C1[C@H](OC(=O)C(C)C)[C@@H](OC(C)=O)[C@@H](OC(C)=O)C(C)(C)/C=C/[C@H](C)[C@H](OC(=O)c2ccccc2)[C@@]2(O)C[C@@](C)(OC(C)=O)[C@H](OC(C)=O)[C@@H]2[C@H]1OC(=O)c1ccccc1	No

Lab note: next molecule to report on.
Determine whether this molecule shows selectivity ratio lower than 400 (ties excluded): C=C1[C@H](OC(=O)C(C)C)[C@@H](OC(C)=O)[C@@H](OC(C)=O)C(C)(C)/C=C/[C@H](C)[C@H](OC(=O)c2ccccc2)[C@@]2(O)C[C@@](C)(OC(C)=O)[C@H](OC(C)=O)[C@@H]2[C@H]1OC(=O)C(C)CC (stereo partly drawn)
No

###

experiment: Cytotoxicity against human MCF7/ADR cells assessed as cell survival at 10 uM after 48 hrs by MTT assay relative to control; type: cell-based; settings: MCF7/ADR cells (NCI/ADR-RES), read-out: Survival
Readout: viability at 48 h, 10 µM (%)
Give the value, in units of %, as a plain number.

Line notation	Readout	Result number
CC(=O)O[C@H]1[C@@H](OC(C)=O)C(C)(C)[C@@H]2O[C@H]2[C@H](C)[C@H](OC(C)=O)[C@]2(O)[C@H]3[C@@H](OC(=O)c4ccccc4)[C@@](O)(CCC(=O)O[C@H]3[C@](C)(OC(C)=O)[C@H]2OC(C)=O)[C@@H]1OC(C)=O	viability at 48 h, 10 µM	93
C=C1[C@H](OC(=O)C(C)C)[C@@H](OC(C)=O)[C@@H](OC(C)=O)C(C)(C)/C=C/[C@H](C)[C@H](OC(=O)c2ccccc2)[C@@]2(O)C[C@@](C)(OC(C)=O)[C@H](OC(C)=O)[C@@H]2[C@H]1OC(=O)CC	viability at 48 h, 10 µM	92.8
C=C1CCC(=O)C(C)(C)/C=C/[C@H](C)C(=O)[C@@]2(OC(C)=O)C[C@H](C)[C@H](O)[C@@H]2[C@H]1OC(=O)c1ccccc1	viability at 48 h, 10 µM	90.4

compound `C=C1[C@H](OC(=O)C(C)C)[C@@H](OC(C)=O)[C@@H](OC(C)=O)C(C)(C)/C=C/[C@H](C)C(=O)[C@@]2(O)C[C@@](C)(OC(C)=O)[C@H](OC(C)=O)[C@@H]2[C@H]1OC(=O)c1ccccc1` , viability at 48 h, 10 µM observed: 90.3

###

system: NCI/ADR-RES; experiment: Cytotoxicity against human MCF7/ADR cells after 48 hrs by MTT assay; format: cell-based
Readout: IC50

molecule `CC(=O)O[C@H]1[C@@H](OC(C)=O)C(C)(C)[C@@H]2O[C@H]2[C@H](C)[C@H](OC(C)=O)[C@]2(O)[C@H]3[C@@H](OC(=O)c4ccccc4)[C@@](O)(CCC(=O)O[C@H]3[C@](C)(OC(C)=O)[C@H]2OC(C)=O)[C@@H]1OC(C)=O` , IC50 observed: > 100 µM

molecule `C=C1[C@H](OC(C)=O)[C@H]2[C@@H](OC(C)=O)[C@@H](C)C[C@]2(OC(C)=O)C(=O)[C@@H](C)/C=C/C(C)(C)C(=O)[C@H](OC(C)=O)[C@H]1OC(=O)CC` , IC50 observed: > 100 µM

###

Recorded viability at 48 h, 10 µM, one value per entry.
assay: Cytotoxicity against human MCF7/ADR cells assessed as cell survival at 10 uM after 48 hrs by MTT assay relative to control; format: cell-based; conditions: MCF7/ADR cells (NCI/ADR-RES), read-out: Survival
Give the value, in units of %, as a plain number.

Example entries begin here.
Molecule	viability at 48 h, 10 µM [%]
C=C1[C@H](OC(=O)CC)[C@@H](OC(C)=O)[C@@H](OC(C)=O)C(C)(C)/C=C/[C@H](C)[C@H](OC(=O)c2ccccc2)[C@@]2(O)C[C@@](C)(OC(C)=O)[C@H](OC(C)=O)[C@@H]2[C@H]1OC(=O)C(C)C	92.5
C=C1[C@H](OC(=O)C(C)C)[C@@H](OC(C)=O)[C@@H](OC(C)=O)C(C)(C)/C=C/[C@H](C)[C@H](OC(=O)c2ccccc2)[C@@]2(O)C[C@@](C)(OC(C)=O)[C@H](OC(C)=O)[C@@H]2[C@H]1OC(=O)C(C)C	94.5
C=C1[C@H](OC(=O)C(C)C)[C@@H](OC(C)=O)[C@@H](OC(C)=O)C(C)(C)/C=C/[C@H](C)[C@H](O)[C@@]2(O)C[C@@](C)(OC(=O)C(C)C)[C@H](OC(C)=O)[C@@H]2[C@H]1OC(=O)c1ccccc1	91.1
COc1ccc(CCN(C)CCCC(C#N)(c2ccc(OC)c(OC)c2)C(C)C)cc1OC (stereo not given)	90.2
C=C1[C@H](OC(C)=O)[C@H]2[C@@H](OC(C)=O)[C@@H](C)C[C@]2(OC(C)=O)C(=O)[C@@H](C)/C=C/C(C)(C)C(=O)[C@H](OC(C)=O)[C@H]1OC(=O)CC	94.8

molecule `C=C1[C@@H](OC(C)=O)[C@@H]2[C@H](OC(=O)c3ccccc3)[C@](C)(OC(=O)C(C)C)C[C@]2(OC(C)=O)C(=O)[C@H](C)/C=C/C(C)(C)[C@H](OC(C)=O)[C@H](OC(C)=O)[C@H]1OC(=O)C(C)C` , viability at 48 h, 10 µM observed: 91.2

molecule `C=C1[C@H](OC(C)=O)[C@H]2[C@@H](OC(C)=O)[C@@H](C)C[C@]2(OC(C)=O)C(=O)[C@@H](C)/C=C/C(C)(C)C(=O)[C@H](OC(C)=O)[C@H]1OC(=O)C(C)C` , viability at 48 h, 10 µM observed: 96.2

molecule `C=C1[C@H](OC(=O)C(C)C)[C@@H](OC(C)=O)[C@@H](OC(C)=O)C(C)(C)/C=C/[C@H](C)[C@H](OC(=O)c2ccccc2)[C@@]2(O)C[C@@](C)(OC(C)=O)[C@H](OC(C)=O)[C@@H]2[C@H]1OC(=O)c1ccccc1` , viability at 48 h, 10 µM observed: 97.7

molecule C=C1[C@H](OC(=O)C(C)C)[C@@H](OC(C)=O)[C@@H](OC(C)=O)C(C)(C)/C=C/[C@H](C)[C@H](OC(=O)c2ccccc2)[C@@]2(O)C[C@@](C)(OC(C)=O)[C@H](OC(C)=O)[C@@H]2[C@H]1OC(=O)C(C)CC (stereo not given in full) , viability at 48 h, 10 µM observed: 91.8
